The measured values listed here are drawn from patent US12091410B2.

- Assayed system: human orexin type 2 receptor (Homo sapiens, UniProt O43614)
- Construct: expressed in transfected cells
- Sequence (O43614 whole entry): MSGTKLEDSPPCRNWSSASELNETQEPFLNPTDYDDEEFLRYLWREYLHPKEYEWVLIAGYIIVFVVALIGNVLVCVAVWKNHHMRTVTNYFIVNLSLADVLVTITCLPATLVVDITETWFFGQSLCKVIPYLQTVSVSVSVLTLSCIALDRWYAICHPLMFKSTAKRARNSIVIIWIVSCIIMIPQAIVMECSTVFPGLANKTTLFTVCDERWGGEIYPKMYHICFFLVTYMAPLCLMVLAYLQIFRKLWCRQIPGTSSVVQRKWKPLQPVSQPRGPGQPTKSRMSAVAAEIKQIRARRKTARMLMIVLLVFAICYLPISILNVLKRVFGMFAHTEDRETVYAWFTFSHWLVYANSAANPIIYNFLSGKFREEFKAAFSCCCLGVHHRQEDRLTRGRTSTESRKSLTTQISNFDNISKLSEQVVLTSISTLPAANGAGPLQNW
- Assay summary: Measurement of orexin type 2 receptor agonist activity (calcium fluorescence, Fluo-4 AM, CHO cells forcibly expressing human OX2 receptor)
- Assay type: cell-based
- Test conditions: test compound 3 μM, DMSO = 0%, orexin A (human) 10 nM = 100%
Value type: OX2R agonist activity (3 μM, %)

CC(C)c1cc2n(n1)[C@@H](COC1CCN(c3ncc(F)cn3)CC1)[C@@H](NS(C)(=O)=O)CC2 (relative stereo): 111
Cc1ccc2c(n1)[C@@H](Cc1cccc(-c3ccccc3)c1)[C@@H](NS(C)(=O)=O)CC2 (racemic): 72
CS(=O)(=O)N[C@H]1CCc2cccnc2[C@H]1Cc1cccc(-c2ccccc2)c1 (racemic): 63
CCc1cc2n(n1)[C@@H](COC1CCN(c3ncccn3)CC1)[C@@H](NS(C)(=O)=O)CC2 (racemic) [Example 28]: 102
CC(O)c1nn2c(c1Cl)CCC(NS(C)(=O)=O)C2COC1CCN(c2ncccn2)CC1 (racemic): 92
Cc1cc2n(n1)[C@@H](Cc1cccc(-c3ccccc3)c1)[C@@H](NS(C)(=O)=O)CC2 (racemic): 77
Cc1nn2c(c1Cl)CC[C@H](NS(C)(=O)=O)[C@@H]2COC1CCN(c2ncc(F)cn2)CC1 (racemic): 91
Cc1nc2c(s1)CC[C@H](NS(C)(=O)=O)[C@@H]2Cc1cccc(-c2ccccc2)c1 (racemic): 62
Cc1nnn2c1CC[C@H](NS(C)(=O)=O)[C@@H]2COC1CCN(c2ncc(F)cn2)CC1 (racemic): 69
Cc1cc2n(n1)[C@@H](COC1CCN(c3ncccn3)CC1)[C@@H](NS(C)(=O)=O)CC2 (racemic): 82
CC(C)c1cc2n(n1)[C@@H](Cc1cccc(-c3ccccc3)c1)[C@@H](NS(C)(=O)=O)CC2 (racemic): 109
CCc1nn2c(c1Cl)CC[C@H](NS(C)(=O)=O)[C@@H]2COC1CCN(c2ncccn2)CC1 (racemic): 92
CS(=O)(=O)N[C@H]1CCc2ccnn2[C@H]1COC1CCN(c2ncc(F)cn2)CC1 (racemic): 85
CCc1nn2c(c1Br)CC[C@H](NS(C)(=O)=O)[C@@H]2COC1CCN(c2ncc(F)cn2)CC1 (racemic): 95
Cc1cc2n(n1)C(CO[C@H]1CC[C@@H](c3ccccc3)CC1)C(NS(C)(=O)=O)CC2 (mixture of isomers): 104
CCc1cc2n(n1)[C@@H](COC1CCN(c3ncc(F)c(OC)n3)CC1)[C@@H](NS(C)(=O)=O)CC2 (racemic): 96
CCc1cc2n(n1)C(CO[C@H]1CC[C@@H](c3ccccc3)CC1)C(NS(C)(=O)=O)CC2 (mixture of isomers): 107
CC(C)n1cc2c(n1)[C@@H](COC1CCN(c3ncccn3)CC1)[C@@H](NS(C)(=O)=O)CC2 (racemic): 98
Cc1cn2c(n1)C(COC1CCN(c3ncc(F)cn3)CC1)C(NC(=O)[C@@H]1CCCO1)CC2 (stereo in doubt): 92
Cc1cn2c(n1)[C@@H](Cc1cccc(-c3cccc(F)c3)c1)[C@@H](NS(C)(=O)=O)CC2 (relative stereo): 94
CCc1cc2n(n1)[C@@H](COC1CCN(c3ncc(F)cn3)CC1)[C@@H](NS(C)(=O)=O)CC2 (relative stereo): 91
CCc1cc2n(n1)[C@@H](COC1CCN(c3ncccn3)CC1)[C@@H](NS(=O)(=O)CC)CC2 (racemic): 101
CCS(=O)(=O)N[C@H]1CCn2cc(C)nc2[C@H]1Cc1cccc(-c2cccc(F)c2)c1 (relative stereo): 95
CC(O)c1cc2n(n1)C(Cc1cccc(-c3ccccc3)c1)C(NS(C)(=O)=O)CC2 (racemic): 105
CC(C)c1cc2n(n1)[C@@H](COC1CCN(c3ccccc3F)CC1)[C@@H](NS(C)(=O)=O)CC2 (racemic): 80
Cc1nc2n(n1)C(CO[C@H]1CC[C@@H](c3ccccc3)CC1)C(NS(C)(=O)=O)CC2 (mixture of isomers): 99
CCc1cc2n(n1)[C@@H](Cc1cccc(-c3ccccc3)c1)[C@@H](NS(C)(=O)=O)CC2 (racemic): 92
CCc1cc2n(n1)[C@@H](COC1CCN(c3ncc(F)c(C)n3)CC1)[C@@H](NS(C)(=O)=O)CC2 (racemic): 80
